ASSAY INFO: NCI Yeast Anticancer Drug Screen. Data for the rad50 strain (AID 155);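 note: 0% = growth of vehicle-only cultures of the same strain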
SETTINGS: S. cerevisiae rad50 strain growth inhibition; at 50.0 µM; hits give high values
This is part of a sample that, as a whole, favours compounds with a hit. Of some 79,000 tested, about 15% had one in any assay.
Think of 20% as a floor: if growth inhibition stands on it or above, it is rule met; beneath it, rule not met.

{"columns": ["COMPOUND", "LABEL CLASS"],
 "data": [
  ["O=C1C(Br)=CC(Br)=C/C1=N/Br", "rule met"],
  ["O=C(C(Cl)=C(N1CCOCC1)N1CCOCC1)C(Cl)Cl", "rule not met"],
  ["COC(=O)/C=C/c1ccccc1", "rule not met"],
  ["Oc1cc2c(cc1O)-c1[nH]ncc1CC2", "rule met"],
  ["CCCCCCCCCCCCOc1cccc(OCCCCCCCCCCCC)c1", "rule met"],
  ["Nc1nc2c(ncn2Cc2ccc(Cl)c(Cl)c2)c(=O)[nH]1", "rule not met"],
  ["C1=C(c2ccccc2)N(c2ccccc2)N=C(c2ccccc2)C1", "rule not met"],
  ["O=C(O)CCCc1ccc2sc3ccccc3c2c1", "rule met"],
  ["O=C(O)CC(Sc1ccccc1)c1ccccc1 (stereo not given)", "rule not met"],
  ["Cc1nc2c(sc(=S)n2-c2ccccc2)c2nc3ccccc3n12", "rule not met"],
  ["Cc1ccc(N2C3=C(CC4=C2CC(C)(C)CC4=O)C(=O)CC(C)(C)C3)cc1", "rule not met"],
  ["CC(=O)C1CC[C@@]2(C)C(CC[C@H]3[C@@H]4CCC[C@H]([C@H](C)O)[C@@]4(C)CC[C@@H]32)C1 (stereo not given in full)", "rule not met"],
  ["COc1c(N)c(C)nc(Cl)c1C#N", "rule not met"],
  ["N#Cc1c2c([nH]c(=O)c1C#N)CCCC2", "rule not met"],
  ["Oc1c(Cl)cc(Cl)cc1/C=N/c1nc(-c2ccc(Cl)cc2)cs1", "rule met"],
  ["CCCN1CN(C(C(=O)N[C@@H]2C(=O)N3C(C(=O)O)=C(C)CSC23)c2ccc(O)cc2)CSC1=S (stereo not given in full)", "rule not met"],
  ["O=C1c2ccccc2C(C(c2ccccc2)c2ccccc2)c2ccccc21", "rule not met"],
  ["CCN1N=Nc2ccccc2NC1=O", "rule not met"],
  ["CCc1nc(N)nc(N)c1-c1ccc(Cl)c(NC(C)=O)c1", "rule not met"],
  ["O=C(O)CCNCCO", "rule not met"],
  ["CN(C)c1ccc(N=C2C=CC(=C(C#N)C#N)c3ccccc32)cc1", "rule not met"],
  ["CCCCOc1cc2c(cc1C(C)c1ccccc1)OCO2 (stereo not given)", "rule not met"],
  ["COc1ccc(C[n+]2ccccc2C#N)cc1OC", "rule not met"],
  ["Nc1ccnc2n[nH]nc12", "rule not met"],
  ["c1ccc(CCN2CCN(CCc3ccccn3)CC2)nc1", "rule not met"]
]}

----------
Below, each entry is listed alongside its reported growth inhibition.
ASSAY INFO: NCI Yeast Anticancer Drug Screen. Data for the mec2-1 strain (AID 157)
SETTINGS: S. cerevisiae mec2-1 strain, at 50.0 µM, hits give high values
This is part of a sample that, as a whole, favours compounds with a hit. Of some 79,000 tested, about 15% had one in any assay.

{"columns": ["MOLECULE", "UNITS OF MEASURE", "growth inhibition"],
 "data": [
  ["CC(=O)C1CCC(C)(O)CC1=O (stereo not drawn)", "%", -18],
  ["O=C(Nc1nc(=S)[nH][nH]1)C(=O)C(C(=O)c1ccc2ccccc2c1)C1OC(=O)c2ccccc21 (stereo not drawn)", "%", 23.3],
  ["CN1CCc2ccccc2C1Cc1cc(OCc2ccccc2)ccc1N (stereo not drawn)", "%", 1.25],
  ["CCN(CC)CCCNc1ccc(-c2cc(OC)cc3cccnc23)cc1", "%", -17.1],
  ["CC1C(O)=C(O)c2ccccc2N1O (stereo not drawn)", "%", -11.1],
  ["CCOc1ccc([N+](=O)[O-])cc1", "%", 3.9],
  ["Cc1ccc(S(=O)(=O)OCC2OCOC2C2OCOC2CI)cc1 (stereo not drawn)", "%", 3],
  ["Cc1nc(-c2ccccc2)oc1-c1ccccc1", "%", -1.5],
  ["CC(C)=CCC/C(C)=N\\Nc1ccc([N+](=O)[O-])cc1[N+](=O)[O-]", "%", -6.7],
  ["CCCCn1cnc2c(N)ncnc21", "%", -7.75],
  ["CC1=C(c2cc(C(=O)Nc3cccc(C(F)(F)F)c3)nc(NC#N)n2)Sc2ccccc2N1", "%", 1.2],
  ["COc1ccccc1-c1nc2ccccc2c(=O)[nH]1", "%", -25.9],
  ["COC(=O)[C@@]1(NC(=O)C(CC(=O)OC(C)(C)C)NC(=O)OC(C)(C)C)C[C@H]1C (stereo partly drawn)", "%", -28.6],
  ["O=C1OC(=Nc2ccccc2Cl)c2ccccc21", "%", -21.5],
  ["Cc1cccc(NC(=O)CSc2nnc(-c3ccc(N=Cc4ccc(Cl)cc4)cc3)o2)c1", "%", -24.1],
  ["NCCCNC1CCCCC1", "%", -27.9],
  ["CCCCc1ccc(Nc2c(C(=O)OCC)cnc3cc4c(cc23)OCO4)cc1", "%", -12.4],
  ["CCCCCCCCC1CC(=O)OC1=O (stereo not drawn)", "%", 0.55],
  ["NS(=O)(=O)c1cccc(C(F)(F)F)c1", "%", -37.9],
  ["N#CC(C(=O)O)C1(C(C#N)C(=O)O)CCN(Cc2ccccc2)CC1 (stereo not drawn)", "%", -5.1],
  ["O=[N+]([O-])c1ccccc1-c1ccccc1CO", "%", -19.2],
  ["O=C1OC(/C=C/c2ccccc2)=NC/1=C\\c1ccc(Cl)cc1", "%", 14.1],
  ["CC(C)(C)[Si](C)(C)OCCCC#CCO", "%", -5.3],
  ["CC(=O)N1C(Nc2ccccn2)CCN1c1ccccc1 (stereo not drawn)", "%", -45.3],
  ["CC(C)=CC(=O)n1nc2c(c1CC(C)C)C(=O)C(Nc1ccccc1)=CC2=O", "%", 3.25],
  ["OC(CN1CCc2ccccc2C1)c1ccccc1 (stereo not drawn)", "%", 8.05],
  ["FC(F)Cc1ccccc1", "%", -0.75],
  ["CC(=O)Nc1c(Nc2ccccc2)[nH]c(C)nc1=S", "%", -9.35],
  ["C=CCC(=S)NCCc1c[nH]c2ccccc12", "%", 2.4],
  ["CC1N=C(c2ccccc2)SC1C (stereo not drawn)", "%", -18.4],
  ["COc1ccccc1NC(=O)CC(=O)N1N=C(N2c3ccccc3Sc3ccccc32)CC1c1ccccc1 (stereo not drawn)", "%", 3.2],
  ["CCOC(=O)C(C#N)C1=CC(=O)C(=O)c2ccc(O)cc21 (stereo not drawn)", "%", -7.65],
  ["O=C(Nc1ccccc1)OCc1cnc2ccccc2c1", "%", -22.6],
  ["CCC(=O)N1C(=O)C(C)C23c4ccccc4C(=O)N2CCCN13 (stereo not drawn)", "%", -13.1],
  ["Brc1ccc(/C(=N/Nc2ccccc2)Oc2ccccc2)cc1", "%", 1.8],
  ["COc1ccc(C2(C(OC)OC)NC(=O)N(Cc3ccccc3)C2=O)cc1 (stereo not drawn)", "%", -10.6],
  ["COC(=O)C(CSSCC(C(=O)NC(Cc1ccccc1)C(=O)NCC(=O)OC(C)(C)C)N1C(=O)CCC1=O)NC(=O)OCc1ccccc1 (stereo not drawn)", "%", 11.4],
  ["CCOC(=O)C(=CNc1ccc(N(CC)CC)cc1)C(=O)OCC", "%", -7.85],
  ["O=C(CCN1C(=O)NC(c2ccccc2)(c2ccccc2)C1=O)NCCN1CCOCC1", "%", 13.5],
  ["Cc1nc2cc([N+](=O)[O-])ccc2c(NCCCN(C)C)c1C", "%", 8.35],
  ["Cc1ccc(CNC(=O)Nc2c(C)cccc2C)cc1C", "%", 2.55],
  ["COc1ccc2nc(N/N=C/C(C)=N/Nc3cc(C)c4cc(OC)ccc4n3)cc(C)c2c1", "%", 4.8],
  ["N#CCCC1C(=O)CCCC1=O", "%", 9.2],
  ["O=C(CBr)OCCC1CCCCC1", "%", 4.7],
  ["Cc1n(CC(=O)c2ccccc2)nc2sc(N)n[n+]12", "%", -23.9],
  ["COc1cc2c(c([N+](=O)[O-])c1)NC(=O)CC(C)S2 (stereo not drawn)", "%", -6.25],
  ["CCN(CC)CCSC(=O)c1ccc([N+](=O)[O-])cc1", "%", 7.7],
  ["CSc1ccc2c(cc1=O)[C@@H](NC(C)=O)CCc1cc(O)c(O)c(O)c1-2", "%", 12.3]
]}
